The measurements presented in this section are drawn from patent US10301292B2.

- TARGET_SYSTEM: human ACC1 (Homo sapiens, UniProt Q13085)
- Construct: His tag (from vector pFAST-BacHTc; protein captured on Ni-NTA) (N); made in house; host or cells: SF-9 insect cells, recombinant baculovirus BAC-ACC1
- ASSAY_OVERVIEW: Measurement of ACC1 inhibitory activity (Malonyl-CoA production, RapidFire-mass spectrometry)
- Assay type: biochemical
- CONDITION_CONTEXT: 10 μM of the test compound; recombinant human ACC1; read-out: ACC1 inhibitory rate (%) at 10 μM
PROPERTY: inhibition at 10 µM (%)

MOLECULE	VALUE_OBSERVED
CCCCOc1cccc(Oc2ccc(-c3nc4ccc(C(C)NC(C)=O)cc4o3)nc2)c1 (centres unmarked)	86
CC(=O)NC(C)C1CCc2nc(-c3ccc(Oc4cccc(OCC5CC5)c4)cc3)oc2C1 (centres unmarked)	97
CC(=O)NC(C)c1ccc2sc(-c3ccc(Oc4cccc(OCC5CC5)c4)cc3)cc2c1 (centres unmarked)	90
CCCn1cc(Oc2ccc(-c3nc4ccc(C(C)NC(C)=O)cc4o3)cn2)ccc1=O (centres unmarked)	94
CNC(=O)NC(C)c1ccc2nc(-c3ccc(Oc4cccc(OCC5CC5)c4)nc3)oc2c1 (centres unmarked)	94
CC(=O)NC(C)c1ccc2nc(-c3ccc(Oc4cccc(OCC5CC5)c4)cc3)oc2c1C (centres unmarked)	94
CC(=O)NC(C)c1ccc2nc(-c3ccc(Oc4cccc(OCC5CC5)c4)cc3)oc2c1 (centres unmarked)	95
CC(=O)NC(C)c1ccc2cn(-c3ccc(Oc4cccc(OCC5CC5)c4)cc3)nc2c1 (centres unmarked)	94

====

- TARGET_SYSTEM: human ACC1 (Homo sapiens)
- Construct: His tag (from vector pFAST-BacHTc; protein captured on Ni-NTA) (N); made in house; host or cells: SF-9 insect cells, recombinant baculovirus BAC-ACC1
- ASSAY_OVERVIEW: Measurement of ACC1 inhibitory activity (Malonyl-CoA production, RapidFire-mass spectrometry)
- Assay type: biochemical
- CONDITION_CONTEXT: 10 μM of the test compound; recombinant human ACC1; read-out: ACC1 inhibitory rate (%) at 10 μM
PROPERTY: inhibition at 10 µM (%)

COMPOUND	inhibition at 10 µM (%)
CC(=O)NC(C)c1cc2cc(-c3ccc(Oc4cccc(OCC5CC5)c4)cc3)ccc2o1 (stereo not shown)	94
CC(=O)NC(C)c1ccc2nc(-c3ccc(Oc4cccc(OC[C@@H]5CC5(F)F)c4)nc3)oc2c1 (stereo partly shown)	100
CC(=O)NC(C)c1ccc2cc(-c3ccc(Oc4cccc(OC[C@@H]5CC5(F)F)c4)nc3)oc2c1 (stereo partly shown)	100
CC(NC(N)=O)c1ccc2nc(-c3ccc(Oc4cncc(OCC5CC5)c4)nc3)oc2c1 (stereo not shown)	103
CCCCn1cc(Oc2ccc(-c3nc4ccc(C(C)NC(C)=O)cc4o3)cn2)ccc1=O (stereo not shown)	96
COC(=O)NC(C)c1ccc2nc(-c3ccc(Oc4cccc(OCC5CC5)c4)nc3)oc2c1 (stereo not shown)	98
CC(=O)NC(C)c1ccc2sc(-c3ccc(Oc4cccc(OCC5CC5)c4)nc3)nc2c1 (stereo not shown)	94
CC(=O)NC(C)c1ccc2nc(-c3ccc(Oc4cccc(OC[C@@H]5CC5(F)F)c4)cn3)oc2c1 (stereo partly shown)	99
CC(=O)NC(C)c1ccc2cc(-c3ccc(Oc4cccc(OCC5CC5)c4)nc3)oc2c1 (stereo not shown)	97
CC(NC(=O)N(C)C)c1ccc2nc(-c3ccc(Oc4cccc(OCC5CC5)c4)nc3)oc2c1 (stereo not shown)	96
CC(=O)NC(C)c1ccc2nc(-c3ccc(Oc4cccc(OCC5CC5)c4)cn3)oc2c1 (stereo not shown)	99
CC(NC(N)=O)c1ccc2nc(-c3ccc(Oc4cccc(OCC(C)(F)F)c4)nc3)oc2c1 (stereo not shown)	97
CCCOc1cccc(Oc2ccc(-c3nc4ccc(C(C)NC(C)=O)cc4o3)nc2)c1 (stereo not shown)	94
CCCCCc1cccc(OC2CN(c3nc4ccc(C(C)NC(C)=O)cc4o3)C2)c1 (stereo not shown)	82
CC(=O)NC(C)c1ccc2nc(-c3ccc(Oc4cccc(OCC5CC5)c4)cc3)oc2c1F (stereo not shown)	101
CC(NC(N)=O)c1ccc2nc(-c3cnc(Oc4cccc(OCC5CC5)c4)cn3)oc2c1 (stereo not shown)	97

====

- TARGET_SYSTEM: human ACC1 (Homo sapiens)
- Construct: His tag (from vector pFAST-BacHTc; protein captured on Ni-NTA) (N); made in house; host or cells: SF-9 insect cells, recombinant baculovirus BAC-ACC1
- ASSAY_OVERVIEW: Measurement of ACC1 inhibitory activity (Malonyl-CoA production, RapidFire-mass spectrometry)
- Type: biochemical
- CONDITION_CONTEXT: 10 μM of the test compound; recombinant human ACC1; read-out: ACC1 inhibitory rate (%) at 10 μM
PROPERTY: inhibition at 10 µM (%)

COMPOUND	VALUE_OBSERVED
CC(=O)NC(C)c1ccc2nc(-c3cnc(Oc4cccc(OCC5CC5)c4)cc3C)oc2c1 (stereo not shown)	92
CC(NC(N)=O)c1ccc2nc(-c3ccc(Oc4cccc(OCC5CC5)c4)nn3)oc2c1 (stereo not shown)	98
CC(NC(N)=O)c1ccc2nc(-c3ccc(Oc4cccc(OCC5CC5)c4)nc3)oc2c1 (stereo not shown)	98
CC(=O)NC(C)c1ccc2oc(-c3ccc(Oc4cccc(OCC5CC5)c4)nc3)nc2c1 (stereo not shown)	95
CC(=O)NC(C)c1ccc2nc(-c3ccc(Oc4cc(OCC5CC5)ccn4)cc3)oc2c1 (stereo not shown)	98
CC(=O)NC(C)c1cc2cc(-c3cnc(Oc4cccc(OCC5CC5)c4)cn3)ccc2o1 (stereo not shown)	100
C[C@H](NC(N)=O)c1ccc2nc(-c3ccc(Oc4cccc(OCC5CC5)c4)nc3)oc2c1 [Example 98b]	98
CC(=O)NC(C)c1ccc2nc(N3CC(Oc4cccc(OCC5CC5)c4)C3)oc2c1 (stereo not shown)	100
CC(NC(N)=O)c1ccc2nc(-c3ccc(Oc4cccc(OCC5CC5)c4)nc3)oc2c1F (stereo not shown)	100
CC(=O)NC(C)c1ccc2c(c1)CC(c1ccc(Oc3cccc(OCC4CC4)c3)cn1)O2 (stereo not shown)	100

====

- TARGET_SYSTEM: human ACC1 (Homo sapiens)
- Construct: His tag (from vector pFAST-BacHTc; protein captured on Ni-NTA) (N); made in house; host or cells: SF-9 insect cells, recombinant baculovirus BAC-ACC1
- ASSAY_OVERVIEW: Measurement of ACC1 inhibitory activity (Malonyl-CoA production, RapidFire-mass spectrometry)
- Type: biochemical
- CONDITION_CONTEXT: 10 μM of the test compound; recombinant human ACC1; read-out: ACC1 inhibitory rate (%) at 10 μM
PROPERTY: inhibition at 10 µM (%)

MOLECULE	TARGET_SYSTEM	inhibition at 10 µM / %
CC(=O)NC(C)c1ccc2oc(-c3ccc(Oc4cccc(OCC5CC5)c4)cn3)cc2c1 (centres unmarked) [Example 31]	human ACC1 (Homo sapiens)	98
CC(=O)NC(C)c1ccc2nc(-c3ccc(Oc4cccc(OCC5CC5)c4)nc3)oc2c1 (centres unmarked) [Example 37]	human ACC1 (Homo sapiens)	101
CC(=O)NC(C)c1ccc2nc(-c3ccc(Oc4cccc(OCC5CC5)c4)cc3)oc2n1 (centres unmarked) [Example 104]	human ACC1 (Homo sapiens)	98
CC(=O)NC(C)c1ccc2nc(-c3ccc(Oc4cccc(OCC5CC5)c4)nn3)oc2c1 (centres unmarked) [Example 96]	human ACC1 (Homo sapiens)	100
CC(=O)NC(C)c1ccc2cc(-c3ccc(Oc4cccc(OCC5CC5)c4)cn3)oc2c1 (centres unmarked) [Example 35]	human ACC1 (Homo sapiens)	94
CC(=O)NC(C)c1ccc2nc(-c3ncc(Oc4cccc(OCC5CC5)c4)cc3C)oc2c1 (centres unmarked) [Example 47]	human ACC1 (Homo sapiens)	82
CC(=O)NC(C)c1ccc2cc(-c3ccc(Oc4cccc(OCC5CC5)c4)cc3)nn2c1 (centres unmarked) [Example 86]	human ACC1 (Homo sapiens)	95
CC(=O)NC(C)c1ccc2sc(N3CC(Oc4cccc(OCC5CC5)c4)C3)nc2c1 (centres unmarked) [Example 44]	human ACC1 (Homo sapiens)	100
